system-under-test: FOXC2 DBD WT (UniProt Q99958 72-172)
Sequence: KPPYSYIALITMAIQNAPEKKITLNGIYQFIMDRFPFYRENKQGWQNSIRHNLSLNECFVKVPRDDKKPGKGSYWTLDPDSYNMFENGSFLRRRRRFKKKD
assay: SELEX-seq (GST pull-down, four rounds, 16-nt random library); pH 7.0; 20 mM HEPES, 140 mM KCl, 0.05 mM TCEP-HCl, pH 7.0, room temperature, 30 min; 2.5 uM GST-FOXC2 DBD, 0.25 uM DNA library; high values mean tight binding
applied-conditions: protein: recombinant; tags: N-terminal GST (pGEX-6P-2); dsDNA, one strand shown
In all, about 1,100 sequences were measured (“relative enrichment”: median about 0.38, highest 2% from about 0.66 on). The sample as a whole holds a higher share of the highest values than the screen did.
assay-metric: binding signal (relative enrichment)
Form entry: value (relative enrichment) — number only.

Qu. What binding signal appears in the records for this sequence with FOXC2 DBD WT (UniProt Q99958 72-172)? "GCTCAA"
Ans. 0.305

Qu. Likewise for "AAAATA" ?
Ans. 0.439

Qu. Likewise for "GAAATA" ?
Ans. 0.451

Qu. Likewise for "CAAATA" ?
Ans. 0.707

Qu. Likewise for "CAATGC" ?
Ans. 0.376

Qu. Likewise for "CATAAC" ?
Ans. 0.226

Qu. Likewise for "CAAATC" ?
Ans. 0.3

Qu. Likewise for "CTATCA" ?
Ans. 0.419

Qu. Likewise for "GGTTTA" ?
Ans. 0.395

Qu. Likewise for "TAAATA" ?
Ans. 0.726

Qu. Likewise for "CAAACA" ?
Ans. 0.57

Qu. Likewise for "GATCTA" ?
Ans. 0.537
